system: M14 melanoma; test: NCI tumour cell line growth inhibition, 48 h
Each record here notes measured GI50.

C=CCO[C@H]1CO[C@H]2[C@@H]1OC[C@@H]2Oc1ccc(Nc2ccnc(Nc3ccc(O[C@H]4CO[C@H]5[C@@H]4OC[C@@H]5OCC=C)c(Cl)c3)n2)cc1Cl; 1.77 µM

Please tell me: GI50 of C=CC(=O)Nc1cc(Nc2ncc(C(=O)OC(C)C)c(-c3cn(C)c4ccccc34)n2)c(OC)cc1N(C)CCN(C)C , system M14 melanoma?
1.87 µM

Please state recorded GI50 (tested on M14 melanoma) of COC1/C=C/OC2(C)Oc3c(C)c(O)c4c(O)c(c(/C=N/Nc5ccc([N+](=O)[O-])cc5[N+](=O)[O-])c(O)c4c3C2=O)NC(=O)C(C)=C/C=C/C(C)C(O)C(C)C(O)C(C)C(OC(C)=O)C1C (configuration not stated)
1.61 µM
